- Test system: HL-60(TB)
- assay details: Cytotoxicity against human HL-60(TB) cells after 48 hrs by SRB assay
- Type: functional
- measurement setup: HL-60, 48 h, read-out: LC50 (the source's name)
Please provide measured CC50 for the entries that follow.
// units = µM; emit number, no label

Memo: COc1ccc(C2CC(c3cccc(Nc4ccnc5cc(Cl)ccc45)c3)=NN2C=O)cc1 (stereo not given) , reported CC50: 5.28

Memo: O=CN1N=C(c2cccc(Nc3ccnc4cc(Cl)ccc34)c2)CC1c1ccc(Cl)cc1 (stereo not given) , reported CC50: 40.2

Memo: COc1cc(C2CC(c3ccc(Nc4ccnc5cc(Cl)ccc45)cc3)=NN2C=O)cc(OC)c1OC (stereo not given) , reported CC50: 75.8
